Reference source: PubChem BioAssay

Below, each of the compounds is paired with its reported composite z-score value.
Test system: Human papillomavirus type 1a protein E7 (residues 44-93)
assayName: small molecules binding HPV E7 44-93 – biochemical, small-molecule microarray, residues 44-93, 635 nm fluorescence, primary screen (AID 1108);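 also: E7 fragment applied at 1 µg/mL in TBST for 1 h at 4 C; score combines spot fluorescence with its signal to noise ratio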
conditionsUsed: fluorescence 635 nm, higher = more signal
Provide a numeric answer; units are not to be included.

Sample records with composite z-score:
O=C1OCCC/C=C\[C@H]2OC34C=CCN(Cn5nnc6ccccc65)C(=O)[C@H]3N(CCCO)C(=O)[C@@H]4C12 (stereo partly specified) :: 0.692
COCCOC(=O)N1C(=O)[C@@]2(c3cc(C#CC4=CCCCC4)ccc31)[C@H](C(=O)N1CCN(c3ncccn3)CC1)[C@H]1C(=O)O[C@H](c3ccccc3)[C@H](c3ccccc3)N1[C@@H]2c1ccc(OCCO)cc1 :: 0.973
CC(=O)n1cc(C(O)C2C=CC3C(=O)N(c4ccccc4)C(=O)C3N2Nc2ccc(C#N)cc2)c2ccccc21 (stereo unspecified) :: 1.48
CN(C)CCCC[C@@H]1NC(=O)[C@H]2C[C@@H](C(=O)NCCCCCNC(=O)CS)[C@@H](c3ccc(O)cc3)N2C1=O :: -0.781
COCCOC(=O)N1C(=O)[C@@]2(c3cc(C#Cc4ccc(OC)cc4)ccc31)[C@H](c1ccc(O)cc1)N1[C@H](c3ccccc3)[C@H](c3ccccc3)OC(=O)[C@H]1[C@@H]2C(=O)N1CCN(c2ncccn2)CC1 :: 1.37

Challenge: Suppose we examine the compound CN(C)CCCCCCNC(=O)[C@@H]1C[C@@H]2C(=O)NCC(=O)N2[C@@H]1c1cccc(OCCO)c1 ; what composite z-score value has been reported?
Response given: 1.12

Challenge: Try the compound COC(=O)[C@@]1(Cc2ccc(F)cc2)[C@H]2c3cc(C(=O)N4CCCC4)n(Cc4ccc(Cl)c(C(F)(F)F)c4)c3C[C@H]2CN1C(=O)c1ccccc1
Response given: 1.37

Challenge: Try the compound CC1CC/C=C\[C@H]2OC34C=CCN(Cn5nnc6ccccc65)C(=O)[C@H]3N(CCCO)C(=O)[C@@H]4C2C(=O)O1 (stereo partly specified)
Response given: -0.311

Challenge: Try the compound CO[C@H]1O[C@H](CO)[C@@H](OC(=O)Nc2ccc3c(c2)OCO3)[C@H](OC(=O)Nc2ccc3c(c2)OCO3)[C@H]1OC(=O)Nc1ccc2c(c1)OCO2
Response given: 1.45

Challenge: Try the compound CCCNC(=O)[C@@]1(c2ccc([N+](=O)[O-])cc2)CC(=O)N(CC23CC4CC(CC(C4)C2)C3)[C@@H]1c1ccc(CO)cc1I
Response given: 0.0836

Challenge: Try the compound COCCOC(=O)N1C(=O)[C@@]2(c3cc(C#CCCO)ccc31)[C@H](c1ccc(O)cc1)N1[C@H](c3ccccc3)[C@H](c3ccccc3)OC(=O)[C@H]1[C@@H]2C(=O)N1CCCCCCC1
Response given: 0.727

Challenge: Try the compound C=CCOC(=O)[C@H]1[C@@H]2C(=O)O[C@@H](c3ccccc3)[C@@H](c3ccccc3)N2[C@@H](c2ccc(OCCOC(=O)[C@H]3C[C@H]4C(=O)N[C@@H](CCCC[N+](C)(C)C)C(=O)N4[C@H]3c3ccc(O)cc3)cc2)[C@]12C(=O)Nc1ccccc12
Response given: 0.411

Challenge: Try the compound C=C(CCCC)C(=O)CC[C@H](OC(=O)c1ccccc1-c1ccccc1C(=O)O)c1ccc(CO)o1
Response given: 1.42

Challenge: Try the compound O=C(NCc1ccccc1)[C@@H]1c2ccccc2C(=O)N(C2CCCCC2)[C@H]1c1ccc(CO)cc1
Response given: 1.47

Challenge: Try the compound CCN(CC)c1ccc(N2CC=CC34O[C@@H]5/C=C\CCC(C)OC(=O)C5[C@H]3C(=O)N(CCCCCCO)[C@@H]4C2=O)cc1 (stereo partly specified)
Response given: -0.27

Challenge: Try the compound Cc1ccc(S[C@]2(C(=O)NCCCN(C)C)CC(=O)N(Cc3ccccc3)[C@@H]2c2ccc(CO)cc2)cc1
Response given: -0.364

Challenge: Try the compound NC(=O)NCC#Cc1ccc2c(c1)[C@]1(C(=O)N2)[C@H](C(=O)NC[C@H](O)c2ccccc2)[C@H]2C(=O)O[C@H](c3ccccc3)[C@H](c3ccccc3)N2[C@@H]1c1ccccc1OCCO
Response given: 1.41

Challenge: Try the compound CC1CC/C=C\[C@H]2OC34C=CCN(CCN5CCOCC5)C(=O)[C@H]3N(CCCCCO)C(=O)[C@@H]4C2C(=O)O1 (stereo partly specified)
Response given: -1.78

Challenge: Try the compound [N-]=[N+]=NCc1ccccc1[C@@H]1OC(c2ccc(OCCCO)cc2)=N[C@]1(Cc1ccccc1N=[N+]=[N-])C(N)=O
Response given: 1.43

Challenge: Try the compound CN1C(=O)C2C(C1=O)C1C=C(c3ccc(CO)cc3)C2C(C2CC2)N1Cc1sc2ccccc2c1Cl (stereo unspecified)
Response given: 0.946

Challenge: Try the compound C[n+]1ccc2ccc(O)cc2c1
Response given: 0.642

Challenge: Try the compound O=C1OCC=C[C@H]2OC34C=CCN(CCN5CCOCC5)C(=O)[C@H]3N(CCCCCCO)C(=O)[C@@H]4[C@@H]12 (stereo partly specified)
Response given: -0.139

Challenge: Try the compound O=C1O[C@H](c2ccccc2)[C@H](c2ccccc2)N2[C@H]1[C@@H](C(=O)NC[C@H](O)c1ccccc1)[C@]1(C(=O)Nc3ccc(C#CC4(O)CCCCCC4)cc31)[C@H]2c1ccccc1OCCO
Response given: 1.36

Challenge: Try the compound Cc1ccc([C@H]2C(C(=O)O)=C[C@@H](C(C)C)N2S(=O)(=O)c2ccc(C)cc2)cc1
Response given: 1.39

Challenge: Try the compound O=C1O[C@@H](c2ccccc2)[C@@H](c2ccccc2)N2[C@@H](c3ccc(O)cc3)[C@]3(C(=O)Nc4ccc(C#CCCO)cc43)[C@@H](C(=O)O)[C@H]12
Response given: 0.449

Challenge: Try the compound CS(=O)(=O)CCOC(=O)C1=CC(c2ccc(CO)cc2)=CC(c2cccs2)N(Cc2cccc(OC(F)(F)F)c2)C=C1C(=O)OCCS(C)(=O)=O (stereo unspecified)
Response given: 0.869
